system: T1, human RGMa (human, UniProt Q96B86 48-422, limits assumed)
T1 construct: also called hRGMa; h RGMa
T1 sequence (looked up): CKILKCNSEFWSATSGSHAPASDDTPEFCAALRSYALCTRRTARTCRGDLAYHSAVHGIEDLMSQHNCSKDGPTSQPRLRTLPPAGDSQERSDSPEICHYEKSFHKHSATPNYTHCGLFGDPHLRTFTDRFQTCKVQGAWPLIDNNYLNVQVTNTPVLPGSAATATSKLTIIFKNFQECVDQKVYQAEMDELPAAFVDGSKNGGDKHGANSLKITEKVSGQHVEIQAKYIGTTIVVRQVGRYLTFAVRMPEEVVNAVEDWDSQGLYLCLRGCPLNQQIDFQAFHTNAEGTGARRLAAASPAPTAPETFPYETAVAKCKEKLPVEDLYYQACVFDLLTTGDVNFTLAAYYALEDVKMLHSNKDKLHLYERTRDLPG
testProtocol: BIAcore; Ab captured via anti-hIgG Fc on CM5 chip, antigen injected; 1:1 Langmuir fit
experimentalEndpoint: Kd (nM)
Just the number in nM, nothing appended.

Guide cases for Kd, answers given:
1) humanized antibody 5F9.23 (antibody, V domains shown, also called h5F9.23; H5F9.23) VH: EVQLVESGGGLVQPGGSLRLSCAASGFTFSNYGMNWIRQAPGKGLEWIGMIYYDSSEKHYADSVKGRFTISRDNSKNTLYLQMNSLRAEDTAVYYCAKGTTPDYWGQGTMVTVSS VL: DVVLTQSPLSLPVTLGQPASISCRSSQSLEYSDGYTFLEWFQQRPGQSPRLLIYEVSNRFSGVPDRFSGSGSGTDFTLKISRVEAEDVGVYYCFQATHDPLTFGQGTKLEIKR = 3.7
2) RGMA-h5F9pJP302/pJP303 hIgG1/K mut (antibody, V domains shown, Tested as IgG; also called h5F9.AM11; H5F9AM.11) VH: EVQLVESGGGLVQPGGSLRLSCAASGFTFSNYGMNWVRQAPGKGLEWVSMIYYDSSEKHYADSVKGRFTISRDNSKNTLYLQMNSLRAEDTAVYYCAKGTTPDYWGQGTMVTVSS VL: DVVLTQSPLSLPVTLGQPASISCRSSQSLEDSDGGTFLEWFQQRPGQSPRLLIYDVSSRFSGVPDRFSGSGSGTDFTLKISRVEAEDVGVYYCFQATHDPLSFGQGTKLEIK = 0.11
3) RGMA-h5F9Vh7a/pJP291 hIgG1/K mut (antibody, V domains shown, Tested as IgG; also called h5F9.AM4; H5F9AM.4) VH: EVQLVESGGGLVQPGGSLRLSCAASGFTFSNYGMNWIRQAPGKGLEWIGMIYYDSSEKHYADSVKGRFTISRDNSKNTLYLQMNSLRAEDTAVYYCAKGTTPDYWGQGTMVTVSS VL: DVVLTQSPLSLPVTLGQPASISCRSSQSLESSDGDTFLEWFQQRPGQSPRLLIYDVSTRFSGVPDRFSGSGSGTDFTLKISRVEAEDVGVYYCFQVTHDPVTFGQGTKLEIK = 0.015

Now look at this one.
RGMA-h5F9pJP297/pJP299 hIgG1/K mut (antibody, V domains shown, Tested as IgG; also called h5F9.AM9; H5F9AM.9) VH: EVQLVESGGGVVQPGRSLRLSCAASGFTFSNYGMNWVRQAPGKGLEWVAMIYYDSSEKHYADSVKGRFTISRDNSKNTLYLQMNSLRAEDTAVYYCARGTTPDYWGQGTMVTVSS VL: DVVLTQSPLSLPVTLGQPASISCRSSQSLADSDGDTFLHWFQQRPGQSPRLLIYAVSHRFSGVPDRFSGSGSGTDFTLKISRVEAEDVGVYYCFQATHDPVTFGQGTKLEIK yielded Kd of 0.47
